Exercise: state measured IC50 for each of the molecules provided.
Target: JAK2 (Homo sapiens)
Construct: host or cells: baculovirus expression system
Sequence (O60674 whole entry): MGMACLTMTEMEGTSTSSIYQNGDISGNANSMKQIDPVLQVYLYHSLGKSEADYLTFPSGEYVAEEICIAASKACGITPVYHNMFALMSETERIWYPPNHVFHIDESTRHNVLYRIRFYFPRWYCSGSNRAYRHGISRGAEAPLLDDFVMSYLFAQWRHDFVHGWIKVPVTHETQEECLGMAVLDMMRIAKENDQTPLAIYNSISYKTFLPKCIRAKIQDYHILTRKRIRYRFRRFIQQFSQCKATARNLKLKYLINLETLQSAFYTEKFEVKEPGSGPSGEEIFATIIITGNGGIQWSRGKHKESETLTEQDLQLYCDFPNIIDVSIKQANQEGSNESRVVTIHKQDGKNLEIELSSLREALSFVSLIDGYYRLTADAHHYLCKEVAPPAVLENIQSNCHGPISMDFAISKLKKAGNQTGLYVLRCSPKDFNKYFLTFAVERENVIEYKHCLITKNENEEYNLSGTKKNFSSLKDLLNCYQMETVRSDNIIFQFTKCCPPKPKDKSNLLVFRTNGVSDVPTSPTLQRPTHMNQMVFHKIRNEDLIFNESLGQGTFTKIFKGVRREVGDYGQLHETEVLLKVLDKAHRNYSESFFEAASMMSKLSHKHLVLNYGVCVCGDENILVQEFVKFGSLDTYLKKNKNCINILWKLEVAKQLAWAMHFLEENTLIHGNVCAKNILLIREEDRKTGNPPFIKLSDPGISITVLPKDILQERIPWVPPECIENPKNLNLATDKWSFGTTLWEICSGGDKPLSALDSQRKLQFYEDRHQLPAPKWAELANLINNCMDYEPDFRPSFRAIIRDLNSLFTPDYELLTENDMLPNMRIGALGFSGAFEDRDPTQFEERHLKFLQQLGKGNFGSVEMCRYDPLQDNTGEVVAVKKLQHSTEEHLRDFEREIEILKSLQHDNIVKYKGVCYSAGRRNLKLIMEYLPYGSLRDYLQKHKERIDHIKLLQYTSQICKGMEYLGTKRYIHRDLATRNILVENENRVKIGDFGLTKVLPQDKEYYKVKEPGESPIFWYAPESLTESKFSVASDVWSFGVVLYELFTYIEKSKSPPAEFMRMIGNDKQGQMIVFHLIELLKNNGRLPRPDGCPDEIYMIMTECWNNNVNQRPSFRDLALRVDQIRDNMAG
Experiment: Recombinant Human JAK2 Kinase Assay (TRF)
Format: biochemical
Conditions: JAK2 kinase inhibition, 0.2 μM ATP; read-out: JAK2 Potency

[Q] Given the entry CN1CCN(c2ccc(Nc3ncc4cc(-c5ccncc5)cn4n3)cc2)CC1 [Example 1158] , report its measured IC50.
[A] < 100 nM

[Q] Given the entry COc1cc(CN2CCN(C(=O)CNC(=O)OC(C)(C)C)CC2)ccc1Nc1ncc2ccc(-c3ccccc3OC)n2n1 [Example 1242] , report its measured IC50.
[A] 100 to 1000 nM

[Q] Give its IC50 value. Item: COc1ccc(-c2ccc3cnc(Nc4cc5c(cc4F)CCC(=O)N5)nn23)cn1 [Example 983]
[A] < 100 nM

[Q] I would be grateful if you could share the reported IC50 for COc1cc(N2CCC(N3CCCOCC3)CC2)ccc1Nc1ncc2ccc(-c3ccccc3OC)n2n1 [Example 780] .
[A] < 100 nM

[Q] Can you look up the measured IC50 of COc1ccccc1-c1ccc2cnc(Nc3ccc(C4CCN(CC(N)=O)CC4)c(OC)c3)nn12 [Example 912] for me?
[A] < 100 nM

[Q] I'd like to know its IC50. The molecule in question is COc1cc(N2CCCN(C)CC2)ccc1Nc1ncc2ccc(-c3ccccc3N(C)S(C)(=O)=O)n2n1 [Example 771]
[A] 100 to 1000 nM

[Q] Given the molecule COc1cc(C2CCNCC2)ccc1Nc1ncc2ccc(-c3cccc4c3NC(=O)C4)n2n1 [Example 714] , what is its reported IC50?
[A] 1000 to 10000 nM

[Q] Request the reported IC50 associated with CN1CCN(c2ccc(Nc3ncc4c(-c5cccc(F)c5)ccn4n3)cc2)CC1 [Example 730]
[A] 1000 to 10000 nM

[Q] Item CN(c1ccccc1-c1ccc2cnc(Nc3ccc4ncn(CCN5CCOCC5)c4c3)nn12)S(C)(=O)=O [Example 1336] has what recorded IC50?
[A] < 100 nM

[Q] What value of IC50 has been reported for the following molecule? COc1ccc(-c2ccc3cnc(Nc4ccc(C5=CCN(CC(N)=O)CC5)c(C(F)(F)F)c4)nn23)cn1 [Example 953]
[A] < 100 nM

[Q] Fill in the blank: the reported IC50 of CS(=O)(=O)Nc1ccncc1-c1ccc2cnc(Nc3ccc(N4CCOCC4)cc3)nn12 [Example 1219] is ____.
[A] 100 to 1000 nM

[Q] # IC50 lookup, item CN(c1ccccc1-c1ccc2cnc(Nc3ccc4c(c3)CCC(N3CCOCC3)CC4)nn12)S(C)(=O)=O (centres unmarked) [Example 615]
[A] < 100 nM

[Q] Consider the molecule shown here: c1cc2c(c(-c3ccc4cnc(Nc5cnn(C6CCNCC6)c5)nn34)c1)OCC2 [Example 715] What is its recorded IC50?
[A] < 100 nM

[Q] I would be grateful if you could share the reported IC50 for COc1ccc(-c2ccc3cnc(Nc4ccc5c(c4)N(S(C)(=O)=O)CCC5)nn23)cn1 [Example 1061] .
[A] < 100 nM

[Q] Entry COc1c(Nc2ncc3ccc(-c4ccccc4N(C)S(C)(=O)=O)n3n2)cccc1C1CCN(C)CC1 [Example 776] has what IC50?
[A] < 100 nM

[Q] I am curious: what IC50 value has been reported for CC(C)(C)NS(=O)(=O)c1cccc(-c2ccc3cnc(Nc4ccc5c(c4)N(S(C)(=O)=O)CCC5)nn23)c1 [Example 1060] ?
[A] < 100 nM

[Q] What does the record list as IC50 for COc1ccncc1-c1ccc2cnc(Nc3ccc(N4CCOCC4)cc3)nn12 [Example 1211] ?
[A] < 100 nM

[Q] Report IC50 for COc1cc(CN2CCNCC2)ccc1Nc1ncc2ccc(-c3ccccc3N(C)S(C)(=O)=O)n2n1 [Example 1223] please.
[A] 1000 to 10000 nM

[Q] Which IC50 reading was recorded for the molecule COc1cc([C@@H]2CCN(CC(N)=O)C[C@@H]2O)ccc1Nc1ncc2ccc(-c3ccccc3OC)n2n1 (racemic) [Example 839] ?
[A] 100 to 1000 nM

[Q] I am curious: what IC50 value has been reported for CN1CCN(c2ccc(Nc3ncc4ccc(-c5cccc(NS(C)(=O)=O)c5)n4n3)cn2)CC1 [Example 1122] ?
[A] < 100 nM
